# Test target: PDGFRB (Homo sapiens)
# Construct: purchased Invitrogen
# Sequence (P09619 33-1106): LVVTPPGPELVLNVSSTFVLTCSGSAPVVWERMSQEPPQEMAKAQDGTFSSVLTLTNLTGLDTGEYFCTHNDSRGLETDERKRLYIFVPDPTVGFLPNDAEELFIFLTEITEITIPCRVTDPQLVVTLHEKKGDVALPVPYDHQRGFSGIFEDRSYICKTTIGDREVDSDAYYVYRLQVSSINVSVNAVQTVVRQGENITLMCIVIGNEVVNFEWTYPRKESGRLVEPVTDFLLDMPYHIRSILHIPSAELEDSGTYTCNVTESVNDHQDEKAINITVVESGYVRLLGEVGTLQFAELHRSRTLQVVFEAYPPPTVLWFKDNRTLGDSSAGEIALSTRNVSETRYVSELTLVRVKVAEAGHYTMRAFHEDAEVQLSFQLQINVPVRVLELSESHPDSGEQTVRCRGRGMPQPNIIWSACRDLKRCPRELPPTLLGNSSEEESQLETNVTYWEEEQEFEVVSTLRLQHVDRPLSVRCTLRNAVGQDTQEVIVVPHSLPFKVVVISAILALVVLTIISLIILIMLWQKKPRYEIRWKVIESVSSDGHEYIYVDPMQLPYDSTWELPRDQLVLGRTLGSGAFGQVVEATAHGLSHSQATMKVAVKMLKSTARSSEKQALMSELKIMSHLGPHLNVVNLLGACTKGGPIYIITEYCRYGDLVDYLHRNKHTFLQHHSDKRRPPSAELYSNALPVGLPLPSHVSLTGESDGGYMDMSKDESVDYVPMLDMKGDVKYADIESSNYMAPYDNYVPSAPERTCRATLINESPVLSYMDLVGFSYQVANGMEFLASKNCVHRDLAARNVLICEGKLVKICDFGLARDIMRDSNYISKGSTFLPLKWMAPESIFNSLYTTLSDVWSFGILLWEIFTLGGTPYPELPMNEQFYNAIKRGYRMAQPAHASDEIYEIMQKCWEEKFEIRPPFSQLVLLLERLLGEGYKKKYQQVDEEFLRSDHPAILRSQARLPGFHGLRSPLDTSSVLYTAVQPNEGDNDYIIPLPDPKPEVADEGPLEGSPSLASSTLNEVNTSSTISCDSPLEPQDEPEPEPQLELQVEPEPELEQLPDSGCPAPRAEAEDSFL
# Test name: In vitro kinase assay (Z′-LYTE)
# Type: biochemical
# Condition notes: read-out: % of inhibition of the kinase compared to the control
Readout type: inhibition at 0.1 µM

{"Molecule": "COC(=O)c1cc2cc(NCc3cc(NC(=O)c4ccc(CNCCN5CCN(C)CC5)c(C(F)(F)F)c4)ccc3C)cnc2[nH]1 [OR0637]", "Test target": "PDGFRB (Homo sapiens)", "Measured value": "≥ 50%"}

stdin: Any idea what inhibition at 0.1 µM was measured for COC(=O)c1cc2cc(NCc3cc(NC(=O)c4cc(N(C)C)cc(C(F)(F)F)c4)ccc3C)cnc2[nH]1 [OR0597] ?
stdout: < 50%

stdin: Any idea what inhibition at 0.1 µM was measured for COC(=O)c1cc2cc(NCc3cc(NC(=O)Cc4cccc(C(F)(F)F)c4)ccc3C)cnc2[nH]1 [OR0601] ?
stdout: < 50%

stdin: Any idea what inhibition at 0.1 µM was measured for COC(=O)c1cc2cc(NCc3cc(NC(=O)c4cccc(C)c4)ccc3C)cnc2[nH]1 [OR0607] ?
stdout: ≥ 50%

stdin: Any idea what inhibition at 0.1 µM was measured for COC(=O)c1cc2cc(NCc3cc(NC(=O)c4ccc(O)c(C(F)(F)F)c4)ccc3C)cnc2[nH]1 [OR0605] ?
stdout: < 50%

stdin: Any idea what inhibition at 0.1 µM was measured for COC(=O)c1cc2cc(NCc3cc(NC(=O)c4cc(Nc5cc[nH]n5)cc(C(F)(F)F)c4)ccc3C)cnc2[nH]1 [OR0642] ?
stdout: < 50%

stdin: Any idea what inhibition at 0.1 µM was measured for COC(=O)c1cc2cc(NCc3cc(NC(=O)c4ccc(CN5CCOCC5)c(C(F)(F)F)c4)ccc3C)cnc2[nH]1 [OR0598] ?
stdout: < 50%

stdin: Any idea what inhibition at 0.1 µM was measured for COC(=O)c1cc2cc(NCc3cc(NC(=O)c4ccc5c(c4)OCO5)ccc3C)cnc2[nH]1 [OR0615] ?
stdout: ≥ 50%

----------
# Tested on: HT29
# Test name: In vitro cell proliferation assay (MTT)
# Format: cell-based
# Condition notes: Homo sapiens, HT-29, 72 h
# EC50 per entry

{"Compound": "COC(=O)c1cc2cc(NCc3cc(NC(=O)c4cc(N(C)C)cc(C(F)(F)F)c4)ccc3C)cnc2[nH]1 [OR0597]", "Readout type": "EC50", "Measured value": "100 to 1000 nM"}

stdin: Any idea what EC50 was measured for COC(=O)c1cc2cc(NCc3cc(NC(=O)C4CCC(C(F)(F)F)CC4)ccc3C)cnc2[nH]1 (stereo not shown) [OR0612] ?
stdout: ≥ 1000 nM

stdin: Any idea what EC50 was measured for COC(=O)c1cc2cc(NCc3cc(NC(=O)c4cccc(C)c4)ccc3C)cnc2[nH]1 [OR0607] ?
stdout: 100 to 1000 nM

stdin: Any idea what EC50 was measured for COC(=O)c1cc2cc(NC(=O)c3cc(NC(=O)c4ccc(CN5CCN(C)CC5)c(C(F)(F)F)c4)ccc3C)cnc2[nH]1 [OR0744] ?
stdout: 100 to 1000 nM

stdin: Any idea what EC50 was measured for CCCOC(=O)c1cc2cc(NCc3cc(NC(=O)c4ccc(CN5CCN(C)CC5)c(C(F)(F)F)c4)ccc3C)cnc2[nH]1 [OR0697] ?
stdout: 100 to 1000 nM

stdin: Any idea what EC50 was measured for COC(=O)c1cc2cc(NCc3cc(NC(=O)c4cccc(Br)c4)ccc3C)cnc2[nH]1 [OR0608] ?
stdout: ≥ 1000 nM

stdin: Any idea what EC50 was measured for COC(=O)c1cc2cc(NCc3cc(NC(=O)c4cncc(C(F)(F)F)c4)ccc3C)cnc2[nH]1 [OR0604] ?
stdout: ≥ 1000 nM

----------
# Test target: FGFR2 (Homo sapiens)
# Construct: purchased Invitrogen
# Sequence (P21802 22-821): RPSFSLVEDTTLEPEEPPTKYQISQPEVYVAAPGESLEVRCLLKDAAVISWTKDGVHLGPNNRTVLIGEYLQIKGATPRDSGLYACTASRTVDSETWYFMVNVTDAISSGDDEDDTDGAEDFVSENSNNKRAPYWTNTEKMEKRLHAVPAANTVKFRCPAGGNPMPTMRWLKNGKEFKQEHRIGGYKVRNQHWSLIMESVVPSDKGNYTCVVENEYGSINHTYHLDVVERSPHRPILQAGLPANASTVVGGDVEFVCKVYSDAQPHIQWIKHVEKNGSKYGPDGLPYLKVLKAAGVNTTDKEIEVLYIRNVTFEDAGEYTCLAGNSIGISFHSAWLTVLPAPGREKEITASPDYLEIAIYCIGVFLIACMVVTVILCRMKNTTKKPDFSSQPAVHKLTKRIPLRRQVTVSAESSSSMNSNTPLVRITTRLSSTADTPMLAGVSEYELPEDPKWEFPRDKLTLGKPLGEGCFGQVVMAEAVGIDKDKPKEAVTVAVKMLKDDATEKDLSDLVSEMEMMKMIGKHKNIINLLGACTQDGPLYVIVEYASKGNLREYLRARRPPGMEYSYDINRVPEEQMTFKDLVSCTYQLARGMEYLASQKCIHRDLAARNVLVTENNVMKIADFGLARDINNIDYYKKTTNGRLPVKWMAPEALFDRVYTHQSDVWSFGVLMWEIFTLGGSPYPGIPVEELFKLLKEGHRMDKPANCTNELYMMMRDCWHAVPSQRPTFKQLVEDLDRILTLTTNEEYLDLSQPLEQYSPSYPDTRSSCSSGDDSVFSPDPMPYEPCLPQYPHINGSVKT
# Test name: In vitro kinase assay (Z′-LYTE)
# Format: biochemical
# Condition notes: read-out: % of inhibition of the kinase compared to the control
Readout type: inhibition at 0.1 µM

{"Mol": "COC(=O)c1cc2cc(NCc3cc(NC(=O)c4ccc(CN5CCOCC5)c(C(F)(F)F)c4)ccc3C)cnc2[nH]1", "inhibition at 0.1 µM": "< 50%"}
{"Mol": "COC(=O)c1cc2cc(NCc3cc(NC(=O)c4ccc5[nH]nnc5c4)ccc3C)cnc2[nH]1", "inhibition at 0.1 µM": "< 50%"}
{"Mol": "COC(=O)c1cc2cc(NC(=O)c3cccc(CNC(=S)c4cccc(C(F)(F)F)c4)c3)cnc2[nH]1", "inhibition at 0.1 µM": "< 50%"}
{"Mol": "COC(=O)c1cc2cc(NCc3cc(NC(=O)c4cccc5c4OCC5)ccc3C)cnc2[nH]1", "inhibition at 0.1 µM": "< 50%"}

stdin: Any idea what inhibition at 0.1 µM was measured for COC(=O)c1cc2cc(NCc3cc(NC(=O)c4cncc(C(F)(F)F)c4)ccc3C)cnc2[nH]1 ?
stdout: < 50%

stdin: Any idea what inhibition at 0.1 µM was measured for COC(=O)c1cc2cc(NCc3ccc(C)c(NC(=O)c4ccc(CN5CCN(C)CC5)c(C(F)(F)F)c4)c3)cnc2[nH]1 ?
stdout: ≥ 50%

stdin: Any idea what inhibition at 0.1 µM was measured for COC(=O)c1cc2cc(NCc3cc(NC(=O)Cc4ccccc4Br)ccc3C)cnc2[nH]1 ?
stdout: < 50%

stdin: Any idea what inhibition at 0.1 µM was measured for COC(=O)c1cc2cc(NCc3cc(NC(=O)c4cncc(C)c4)ccc3C)cnc2[nH]1 ?
stdout: < 50%

stdin: Any idea what inhibition at 0.1 µM was measured for COC(=O)c1cc2cc(NCc3cccc(C(=O)Nc4cccnc4)c3)cnc2[nH]1 ?
stdout: < 50%

stdin: Any idea what inhibition at 0.1 µM was measured for COC(=O)c1cc2cc(NCc3cc(NC(=O)c4ccc(C)c(C(F)(F)F)c4)ccc3C)cnc2[nH]1 ?
stdout: < 50%

stdin: Any idea what inhibition at 0.1 µM was measured for COC(=O)c1cc2cc(NCc3cc(NC(=O)c4ccc(CN5CCNCC5)c(C(F)(F)F)c4)ccc3C)cnc2[nH]1 ?
stdout: ≥ 50%

stdin: Any idea what inhibition at 0.1 µM was measured for CCCOC(=O)c1cc2cc(NCc3cc(NC(=O)c4ccc(CN5CCN(C)CC5)c(C(F)(F)F)c4)ccc3C)cnc2[nH]1 ?
stdout: < 50%

stdin: Any idea what inhibition at 0.1 µM was measured for COC(=O)c1cc2cc(NCc3cc(NC(=O)c4ccc(CN5CCN(C)CC5)c(F)c4)ccc3C)cnc2[nH]1 ?
stdout: ≥ 50%

stdin: Any idea what inhibition at 0.1 µM was measured for COC(=O)c1cc2cc(NCc3cc(NC(=O)c4ccc5c(c4)OCO5)ccc3C)cnc2[nH]1 ?
stdout: < 50%

stdin: Any idea what inhibition at 0.1 µM was measured for COC(=O)c1cc2cc(NCc3cc(NC(=O)c4ccc(CN5CCN(C)CC5)c(C(F)(F)F)c4)ccc3C)cnc2[nH]1 ?
stdout: ≥ 50%

stdin: Any idea what inhibition at 0.1 µM was measured for COC(=O)c1cc2cc(NC(=O)c3cc(NC(=O)c4ccc(CN5CCN(C)CC5)c(C(F)(F)F)c4)ccc3C)cnc2[nH]1 ?
stdout: ≥ 50%

----------
# Test system: HT29
# Test name: In vitro cell proliferation assay (MTT)
# Assay type: cell-based
# Condition notes: Homo sapiens, HT-29, 72 h
# EC50 per entry

{"Compound": "COC(=O)c1cc2cc(NCc3cc(NC(=O)c4ccc(Cn5cnc(C)c5)c(C(F)(F)F)c4)ccc3C)cnc2[nH]1 [OR0639]", "Measured value": "100 to 1000 nM"}
{"Compound": "COC(=O)c1cc2cc(NCc3ccc(C)c(NC(=O)c4ccc(CN5CCN(C)CC5)c(C(F)(F)F)c4)c3)cnc2[nH]1 [OR0622]", "Measured value": "≥ 1000 nM"}
{"Compound": "COC(=O)c1cc2cc(NCc3cc(NC(=O)Cc4cccc(C(F)(F)F)c4)ccc3C)cnc2[nH]1 [OR0601]", "Measured value": "100 to 1000 nM"}

stdin: Any idea what EC50 was measured for COC(=O)c1cc2cc(NCc3cc(NC(=O)c4cccc(C(F)(F)F)c4)ccc3C)cnc2[nH]1 [OR0606] ?
stdout: 100 to 1000 nM

----------
# pEC50 per entry
# Tested on: HT29
# Test name: In vitro cell proliferation assay (MTT)
# Format: cell-based
# Condition notes: Homo sapiens, HT-29, 72 h
pEC50: −log10 of the molar value.

# annotated cases, reported pEC50 shown
{"Molecule": "COC(=O)c1cc2cc(NCc3cc(NC(=O)c4cc(CN5CCN(C)CC5)cc(C(F)(F)F)c4)ccc3C)cnc2[nH]1 [OR0699]", "Readout type": "pEC50", "Measured value": "≥ 7.00"}
{"Molecule": "COC(=O)c1cc2cc(NCc3cc(NC(=O)c4ccc5[nH]ccc5c4)ccc3C)cnc2[nH]1 [OR0617]", "Readout type": "pEC50", "Measured value": "≤ 6.00"}
{"Molecule": "COC(=O)c1cc2cc(NCc3cc(NC(=O)Cc4ccccc4Br)ccc3C)cnc2[nH]1 [OR0599]", "Readout type": "pEC50", "Measured value": "≤ 6.00"}
{"Molecule": "COC(=O)c1cc2cc(NC(=O)c3cc(NC(=O)c4cncc(C(F)(F)F)c4)ccc3C)cnc2[nH]1 [OR0745]", "Readout type": "pEC50", "Measured value": "6.00 to 7.00"}

stdin: Any idea what pEC50 was measured for COC(=O)c1cc2cc(NCc3cc(NC(=O)c4ccc5[nH]nnc5c4)ccc3C)cnc2[nH]1 [OR0616] ?
stdout: ≤ 6.00

stdin: Any idea what pEC50 was measured for COC(=O)c1cc2cc(NCc3cc(NC(=O)c4ccc(CN5CCN(C)CC5)c(C(F)(F)F)c4)ccc3C)cnc2[nH]1 [OR0512] ?
stdout: 6.00 to 7.00

stdin: Any idea what pEC50 was measured for COC(=O)c1cc2cc(NCc3cc(NC(=O)c4cc(Nc5cc[nH]n5)cc(C(F)(F)F)c4)ccc3C)cnc2[nH]1 [OR0642] ?
stdout: 6.00 to 7.00
